targetSystem: KRas G12C (Homo sapiens, UniProt P01116, G12C);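 further: binding to KRas assessed by TR-FRET displacement after one hour incubation at room temperature, potency fitted from percent-of-control values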
Sequence (P01116 1-169 isoform P01116-2 G12C): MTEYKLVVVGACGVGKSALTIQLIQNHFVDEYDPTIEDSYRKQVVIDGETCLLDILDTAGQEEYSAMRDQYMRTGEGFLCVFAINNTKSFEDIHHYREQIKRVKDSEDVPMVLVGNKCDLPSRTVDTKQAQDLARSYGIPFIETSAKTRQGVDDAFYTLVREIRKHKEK
assay: biochemical
pIC50: −log10 of the molar value.
assayMetric: pIC50

                                   compound  assaymetric  numericresult
0  O=C1NCC12CCCN(c1nc(OCC34CCCN3CCC4)nc3c(F)c(-c4cccc5cccc(F)c45)ncc13)C2 (centres unmarked)        pIC50           5.55

a: Fc1c(-c2cccc3cccc(F)c23)ncc2c(NCCCc3cccnc3)nc(OCC34CCCN3CCC4)nc12
b: Fc1c(-c2cccc3cccc(F)c23)ncc2c(NCCCc3cc[nH]n3)nc(OCC34CCCN3CCC4)nc12
c: O=C(O)[C@H]1C[C@H](Nc2nc(OCC34CCCN3CCC4)nc3c(F)c(-c4cccc5cccc(F)c45)ncc23)C1
Endpoint returns the given compounds ordered by ascending pIC50. List labels; respect the requested ordering.
c, a, b

###

targetSystem: KRas G12R (Homo sapiens, UniProt P01116, G12R)
Sequence (P01116 1-169 isoform P01116-2 G12R): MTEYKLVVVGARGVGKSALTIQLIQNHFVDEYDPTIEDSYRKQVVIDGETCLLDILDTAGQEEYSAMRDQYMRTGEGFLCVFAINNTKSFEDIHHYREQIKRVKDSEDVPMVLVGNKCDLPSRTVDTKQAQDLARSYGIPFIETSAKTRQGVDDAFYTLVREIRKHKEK
assay: biochemical
Overview of recorded IC50 for various compounds

Past entries and their recorded results:
compound	IC50
O=C1NC(=O)C2(CCCN(c3nc(OC[C@@]45CCCN4C[C@H](F)C5)nc4c(F)c(-c5cc(O)cc6ccc(F)c(Br)c56)ncc34)C2)N1 (stereo partly drawn)	≤ 2 nM
CCc1c(F)ccc2cc(O)cc(-c3ncc4c(N5C[C@@H]6C[C@H](C5)[C@H](O)C6)nc(OC[C@@]56CCCN5C[C@H](F)C6)nc4c3F)c12 (single isomer, unassigned)	≤ 2 nM
Oc1cc(-c2ncc3c(N4CC5CC(O)C(C5)C4)nc(OC[C@@]45CCCN4C[C@H](F)C5)nc3c2F)c2c(Cl)c(F)ccc2c1 (stereo partly drawn)	≤ 2 nM
CCc1c(F)ccc2cc(O)cc(-c3ncc4c(NCC5CC(=O)N5)nc(OC[C@@]56CCCN5C[C@H](F)C6)nc4c3F)c12 (single isomer, unassigned)	≤ 2 nM
CCc1c(F)ccc2cc(O)cc(-c3ncc4c(NCc5ccc6[nH]cnc6c5)nc(OC[C@@]56CCCN5C[C@H](F)C6)nc4c3F)c12	≤ 2 nM

Now look at this one.
Sample Oc1cc(-c2ncc3c(N4CC5CC(O)CC4C5)nc(OC[C@@]45CCCN4C[C@H](F)C5)nc3c2F)c2c(Br)c(F)ccc2c1 (stereo partly drawn) — what was its IC50?
≤ 2 nM

###

targetSystem: KRas G12R (Homo sapiens, UniProt P01116, G12R);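 further: TR-FRET displacement assay of compound binding to KRas, read after one hour at room temperature, potency from a four-parameter fit of percent-of-control values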
assay: biochemical
assayMetric: IC50

Some compounds with recorded IC50:
compound	targetSystem	IC50
Oc1cc(-c2ncc3c(N4CCCC5(CC(O)C5)C4)nc(OC[C@@]45CCCN4C[C@H](F)C5)nc3c2F)c2c(Cl)c(F)ccc2c1 (some centres unmarked) [Example 425]	KRas G12R (Homo sapiens, UniProt P01116, G12R)	≤ 2 nM
CCc1c(F)ccc2cc(O)cc(-c3ncc4c(N5CCCCCCC5)nc(OC[C@@]56CCCN5C[C@H](F)C6)nc4c3F)c12 [Example 325]	KRas G12R (Homo sapiens, UniProt P01116, G12R)	≤ 2 nM
CCc1c(F)ccc2cc(O)cc(-c3ncc4c(NCCc5c[nH]nn5)nc(OC[C@@]56CCCN5C[C@H](F)C6)nc4c3F)c12 [Example 169]	KRas G12R (Homo sapiens, UniProt P01116, G12R)	≤ 2 nM
CCc1c(F)ccc2cc(O)cc(-c3ncc4c(N5CCOC[C@@](C)(O)C5)nc(OCC5(CN6CCCC6)CC5)nc4c3F)c12 [Example 321]	KRas G12R (Homo sapiens, UniProt P01116, G12R)	≤ 2 nM
C#Cc1c(F)ccc2cc(O)cc(-c3ncc4c(N5CCCC6(CNC(=O)N6)C5)nc(OC[C@@]56CCCN5C[C@H](F)C6)nc4c3F)c12 (some centres unmarked) [Example 395]	KRas G12R (Homo sapiens, UniProt P01116, G12R)	≤ 2 nM

Give its IC50 value. Item: CCc1c(F)ccc2cc(O)cc(-c3ncc4c(N5CCC[C@]6(CNC(=O)C6)C5)nc(OC[C@]56CCCN5C[C@@H](O)C6)nc4c3F)c12 [Example 206]
≤ 2 nM

Recorded IC50 for CCc1c(F)ccc2cc(O)cc(-c3ncc4c(N5CCCn6nc(C(=O)N(C)C)c(F)c6C5)nc(OC[C@@]56CCCN5C[C@H](F)C6)nc4c3F)c12 [Example 505] , please?
≤ 2 nM

Find the recorded IC50 belonging to CCc1c(F)ccc2cc(O)cc(-c3ncc4c(N5CCC[C@@]6(CNC(=O)N6)C5)nc(OC[C@@]56CCCN5C[C@H](F)C6)nc4c3F)c12 [Example 300] and report it.
≤ 2 nM

The measured values listed here are drawn from patent US12398154B2.
